# Tested on: HT-1080;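 note: viability read as CCK-8 absorbance at 450 nm in cells co-exposed to the GPX4 inhibitor RSL3, relative to a 0.01% DMSO vehicle control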
# assaySummary: relative cell viability with RSL3 co-treatment (fraction of control); higher = stronger protection from RSL3-induced ferroptosis (higher viability)
# recordedConditions: 10 µM
Classify: rule met when relative cell viability is strictly less than 0.7; rule not met when relative cell viability is not.

Reference set, count: 6
FC(F)c1nc2ccccc2n1-c1nc(N2CCOCC2)nc(N2CCOCC2)n1    rule not met
Cn1cc(-c2ccc3nnc(C(F)(F)c4ccc5ncccc5c4)n3n2)cn1    rule not met
Cc1ccc(F)c(NC(=O)Nc2ccc(-c3cccc4[nH]nc(N)c34)cc2)c1    rule met
CCOc1cc2ncc(C#N)c(Nc3ccc(F)c(Cl)c3)c2cc1NC(=O)/C=C/CN(C)C [Pelitinib (EKB-569)]    rule met
Cc1ccc(Nc2nccc(N(C)c3ccc4c(C)n(C)nc4c3)n2)cc1S(N)(=O)=O    rule met
C#Cc1cccc(Nc2ncnc3cc(OCCOC)c(OCCO)cc23)c1    rule met

Problem: Strictly below 0.7: is that where relative cell viability of "Cc1ncc(-c2ccnc(Nc3ccc(S(C)(=O)=O)cc3)n2)n1C(C)C" sits?
Result: rule met

Problem: Given the entry "CN(C)Cc1cccc(N/C(=C2\C(=O)Nc3cc(C(N)=O)ccc32)c2ccccc2)c1" , would its reported relative cell viability be below 0.7?
Result: rule met

Problem: Hello, I'm reviewing records and need to know if relative cell viability of Cc1[nH]c(/C=C2\C(=O)Nc3ccccc32)c(C)c1CCC(=O)O [Orantinib (TSU-68, SU6668)] is below 0.7. Could you check?
Result: rule not met

// data source = the supplement of paper PMC9588786
